Give Ratio IC50 for every item shown.
# Species: Homo sapiens
# procedure-details: Selectivity ratio of IC50 for human CDK2 to IC50 for human PKCzeta

Exercise: For CN1CCN(c2cccc3[nH]c(-c4n[nH]c5cc(-c6ccc7[nH]ccc7c6)ccc45)nc23)CC1 , what is its reported Ratio IC50?
Solution: 2.5

Exercise: How about this compound: CN1CCN(c2cccc3[nH]c(-c4n[nH]c5cc(-c6cccc(N)c6)ccc45)nc23)CC1
Solution: 4

Exercise: How about this compound: CC(=O)Nc1ccc(-c2ccc3c(-c4nc5c(N6CCN(C)CC6)cccc5[nH]4)n[nH]c3c2)cc1
Solution: 1.1

Exercise: How about this compound: COc1cc(F)ccc1-c1ccc2c(-c3nc4c(N5CCN(C)CC5)cccc4[nH]3)n[nH]c2c1
Solution: 0.5

Exercise: How about this compound: COc1ccccc1-c1ccc2c(-c3nc4c(N5CCN(C)CC5)cccc4[nH]3)n[nH]c2c1
Solution: 1.8

Exercise: How about this compound: COc1cc(-c2ccc3c(-c4nc5c(N6CCN(C)CC6)cccc5[nH]4)n[nH]c3c2)ccc1O
Solution: 1.8
